Measured values drawn from patent EP0571593B1 for this set.

System: rat
Assay: ED50 after intracisternal (i.cis.) administration
Assay type: in vivo
For each of the compounds below, state its ED50, rat i.cis. (mg I/kg).
Answers are plain numbers, in mg I/kg.

# compound, ED50, rat i.cis. (mg I/kg)
records = [
    ("CC(=O)Nc1c(I)c(C(=O)NCC(O)CO)c(I)c(C(=O)N(CC(=O)Nc2c(I)c(C(=O)NCC(O)CO)c(I)c(C(=O)NCC(O)CO)c2I)CC(O)CO)c1I (stereo not shown)", 550),
    ("CN(CC(=O)N(C)c1c(I)c(C(=O)NCC(O)CO)c(I)c(C(=O)NCC(O)CO)c1I)C(=O)c1c(I)c(NC(=O)CO)c(I)c(C(=O)NCC(O)CO)c1I (stereo not shown)", 500),
    ("COCC(=O)Nc1c(I)c(C(=O)NCC(O)CO)c(I)c(C(=O)N(C)CC(=O)N(C)c2c(I)c(C(=O)NC(CO)C(O)CO)c(I)c(C(=O)NC(CO)C(O)CO)c2I)c1I (stereo not shown)", 350),
]

Here is another compound to look at.
# query: ED50, rat i.cis. (mg I/kg) of entry CN(C(=O)CC(=O)N(C)c1c(I)c(C(=O)NC(CO)C(O)CO)c(I)c(C(=O)NC(CO)C(O)CO)c1I)c1c(I)c(C(=O)NC(CO)C(O)CO)c(I)c(C(=O)NC(CO)C(O)CO)c1I (stereo not shown) [IOTROLAN, reference compound] 315
